Test system: CCRF-CEM leukemia
Experiment: NCI tumour cell line growth inhibition, 48 h

| compound | GI50 |
| --- | --- |
| COc1ccc(-c2ccc(/C=N/n3cn[nH]c3=S)o2)c([N+](=O)[O-])c1 | 26.1 µM |
| COc1ccc(C2CC(=O)Nc3c2c(C)nn3-c2nc3ccccc3[nH]2)cc1 (stereo unspecified) | 2.11 µM |
| CCOC(=O)c1sc(=S)c2c(C(=O)c3ccccc3)c(C(=O)c3ccccc3)sc2c1C(=O)OCC | 2.1 µM |
| CCN(CC)c1ccc(/C=N/NC(=O)c2ccc(Nc3ccnc(C(F)(F)F)c3)cc2)c(O)c1 | 0.0532 µM |
| COc1ccc(C2=NNC(c3ccc(-c4ccc(OC)cc4[N+](=O)[O-])o3)C2)cc1 (stereo unspecified) | 70 µM |
| COc1ccc(Cl)cc1N1C(=O)C(Cl)=C(Nc2cccc(O)c2)C1=O | 14.5 µM |
| CC(C)(C)Cn1c(N)nc2ccc(-c3[nH]c(C(C)(C)C)nc3-c3ccc(F)cc3)nc21 | 12.6 µM |
| N#C/C(=C\c1cn(-c2ccccc2)c2ccccc12)C(=O)O | 99 µM |
| OCCNc1nc(NCCO)nc(Nc2ccc(C3=NN(c4cc(Cl)cc(Cl)c4)C(c4ccc(Cl)cc4)C3)cc2)n1 (stereo unspecified) | 2.11 µM |
| O=c1cc/c(=N\Nc2ccccc2)c(=O)/c1=N/Nc1ccccc1 | > 50 µM |
| O=C(Oc1ccccc1)c1cc(O)c(O)c(O)c1 | 1.28 µM |

---

Test system: COLO 205 colon
Assay: NCI tumour cell line growth inhibition, 48 h; in the data active means GI50 below about 0.43 µM; inactive means the rest
Labels: yes = active, no = inactive

| molecule | tgt | answer label |
| --- | --- | --- |
| OCCNc1nc(NCCO)nc(Nc2ccc(C3=NN(c4cc(Cl)cc(Cl)c4)C(c4ccc(Cl)cc4)C3)cc2)n1 (stereo unspecified) | COLO 205 colon | no |
| N#C/C(=C\c1cn(-c2ccccc2)c2ccccc12)C(=O)O | COLO 205 colon | no |
| O=C(Oc1ccccc1)c1cc(O)c(O)c(O)c1 | COLO 205 colon | no |
| COc1cc(C)cc2c1OC(c1ccccc1)CC2=O (stereo unspecified) | COLO 205 colon | no |
| COc1ccc2c(c1)[nH]c(=O)c1c3cccnc3cn21 | COLO 205 colon | yes |
| COc1ccc(-c2ccc(/C=N/n3cn[nH]c3=S)o2)c([N+](=O)[O-])c1 | COLO 205 colon | no |
| COc1cc2c(cc1OCCCCCOc1cc(-c3ccc(F)cc3)nc(C)n1)N=C[C@@H]1CCCN1C2=O | COLO 205 colon | no |
| c1ccc(-c2nc(Nc3ccc(-c4nc5ccccc5[nH]4)cc3)nc(N3CCOCC3)n2)cc1 | COLO 205 colon | no |
| CCN(CC)CCC(=O)Nc1cccc2c1C(=O)c1c(c(O)c3ccccc3c1O)C2=O | COLO 205 colon | no |
| CCN(CC)c1ccc(/C=N/NC(=O)c2ccc(Nc3ccnc(C(F)(F)F)c3)cc2)c(O)c1 | COLO 205 colon | yes |
| S=C(Nc1ccccc1)c1ccccn1 | COLO 205 colon | no |

---

Tested on: HOP-92 NSCLC
Assay: NCI tumour cell line growth inhibition, 48 h
Parameter TGI: see the listing below.

| compound | TGI |
| --- | --- |
| C/C(=N\NC(N)=S)c1ccc(/C(C)=N/NC(N)=S)cc1 | > 100 µM |
| Oc1ccccc1C=Nc1ccc(Oc2ccc(Cl)cc2)c(Cl)c1 | 41.4 µM |
| CC[C@@]1(O)C(=O)OCc2c1c(Cl)c1n(c2=O)Cc2cc3ccccc3nc2-1 | > 70.3 µM |
| O=C(/C=C/c1ccc(O)c(O)c1)NC(CO)C(=O)O (stereo not given) | > 100 µM |
| C[C@]12CC[C@H]3[C@@H](CC=C4C[C@@H](O)CC[C@@]43C)[C@@H]1C/C(=C\c1cccc(OCCN3CCOCC3)c1)[C@@H]2O | > 100 µM |
| COC(=O)n1c(=O)nc2c3c(ncn21)Oc1c(c(-c2ccccc2)nn1-c1ccccc1)C3c1ccc(Cl)cc1 (stereo not given) | 3.39 µM |
| COc1ccc(NC(=O)C2=C(SC)C(C#N)C(=O)N=C2N)cc1 (stereo not given) | 69.8 µM |
| CCn1c(=O)c2c(=O)[nH][nH]c2c2ccccc21 | > 100 µM |
| C/C(=N\NC(N)=S)c1ccc2c(c1)OCO2 | > 100 µM |
| CC(C#N)Nc1ccc(Oc2ccc(C(C)(C)c3ccc(Oc4ccc(NC(C)C#N)cc4)cc3)cc2)cc1 (stereo not given) | > 100 µM |

---

Parameter TGI: see the listing below.
System: EKVX NSCLC
Test: NCI tumour cell line growth inhibition, 48 h

| compound | tgt | TGI |
| --- | --- | --- |
| CCn1c(=O)c2c(=O)[nH][nH]c2c2ccccc21 | EKVX NSCLC | > 100 µM |
| COc1ccc(NC2=C(Sc3nc(C)cc(C)n3)C(=O)N(Cc3ccccc3)C2=O)cc1Cl | EKVX NSCLC | > 160 µM |
| COc1ccc2oc(=N)c(C(N)=S)cc2c1 | EKVX NSCLC | 95.7 µM |
| C[C@]12CC[C@H]3[C@@H](CC=C4C[C@@H](O)CC[C@@]43C)[C@@H]1C/C(=C\c1cccc(OCCN3CCOCC3)c1)[C@@H]2O | EKVX NSCLC | > 100 µM |
| CC(=O)NNC=N/C(C#N)=C(\N)C#N | EKVX NSCLC | > 100 µM |
| COc1ccc(Cl)cc1N1C(=O)C(Cl)=C(Nc2cccc(O)c2)C1=O | EKVX NSCLC | > 100 µM |
| COc1cc2c(cc1OC)-c1c(cnn1C1OC(COC(C)=O)C(OC(C)=O)C(OC(C)=O)C1OC(C)=O)CC2 (stereo not drawn) | EKVX NSCLC | > 100 µM |
| CC1(C)CCSC(/C=C/c2ccccc2)=N1 | EKVX NSCLC | 63.7 µM |
| CCCCCCn1c(-c2ccc(C(=O)O/N=C(\N)c3ccc(OC)cc3)cc2)nc(-c2ccccc2)c1-c1ccccc1 | EKVX NSCLC | 3.38 µM |
| Nc1ccc(N=Nc2ccc(/C=C/c3ccc(N=Nc4ccc(N)c5ccc(S(=O)(=O)O)cc45)cc3S(=O)(=O)O)c(S(=O)(=O)O)c2)c2cc(S(=O)(=O)O)ccc12 | EKVX NSCLC | > 100 µM |
| CC(=O)OCC(OC(C)=O)C(OC(C)=O)C(/C=N/N(C(C)=O)S(=O)(=O)c1ccc(/C=C2\NC(=O)NC2=O)cc1)OC(C)=O (stereo not drawn) | EKVX NSCLC | > 100 µM |
| O=C(Nc1ccc(C(F)(F)F)cc1[N+](=O)[O-])C(=O)C(C(=O)c1ccc2ccccc2c1)C1OC(=O)c2ccccc21 (stereo not drawn) | EKVX NSCLC | 21.2 µM |
| COc1ccc2c(c1)c(Cc1c(C)n(C)c3ccc(OC)cc13)c(C)n2C | EKVX NSCLC | > 100 µM |
| Cc1ccccc1C(C#N)/C(=N/NC(=O)c1cc2ccccc2cc1O)C(=O)Nc1cccc(Cl)c1 (stereo not drawn) | EKVX NSCLC | > 100 µM |
| COc1ccc2[nH]c3c(cnn4cnnc34)c2c1 | EKVX NSCLC | > 100 µM |
| CCCCCCCCCC(=O)OCC1(CO)C/C(=C/CC(C(C)C)C(C)C)C(=O)O1 (stereo not drawn) | EKVX NSCLC | > 100 µM |
| CCC(=O)N(c1ccccc1)C(C)CN1CCC(O)(c2ccccc2)CC1 (stereo not drawn) | EKVX NSCLC | > 100 µM |
| NN/C(=N\S(=O)(=O)c1cc(Cl)c(Oc2ccc([N+](=O)[O-])cc2Cl)c(Cl)c1)Nc1ccc(Cl)cc1 | EKVX NSCLC | 61.2 µM |
| COc1ccc2c(OC)c3ccoc3nc2c1O | EKVX NSCLC | > 100 µM |
| COc1cc(/C=C2\CCCC3=C2NC(N)=NC3c2cc(OC)c(OC)c(OC)c2)cc(OC)c1OC (stereo not drawn) | EKVX NSCLC | > 100 µM |
| COc1n[n+]([O-])c(C)cc1[N+](=O)[O-] | EKVX NSCLC | 34.3 µM |
| S=C(Nc1ccccc1)c1ccccn1 | EKVX NSCLC | > 100 µM |
| CCOP(=O)(CS(C)=O)O[C@@H]1C[C@H](C)CC[C@H]1C(C)C (stereo partly drawn) | EKVX NSCLC | 11.2 µM |
| COc1ccc(NS(=O)CCc2ccccc2)cc1 (stereo not drawn) | EKVX NSCLC | > 100 µM |
| CCOc1ccc(C2c3[nH]c4ccccc4c3CCN2C(=O)c2cccs2)cc1 (stereo not drawn) | EKVX NSCLC | > 100 µM |
| C[N+](C)(C)CC1Cc2ccccc2C1=O (stereo not drawn) | EKVX NSCLC | > 10 µM |
| Cc1nc2ccccc2nc1NS(=O)(=O)c1ccc(N)cc1 | EKVX NSCLC | > 100 µM |
| O=C(O)Cc1cc(=O)oc2cc(O)c(Cl)cc12 | EKVX NSCLC | > 100 µM |

Value source: PubChem BioAssay (NCI)
